system: SNB-75 CNS; test: NCI tumour cell line growth inhibition, 48 h
A collection of molecules and their measured TGI

The following molecules have reported results that may help.
>>> result_value("C/C(=N\\Nc1nc2ccccc2[nH]1)c1cc2ccccc2cn1")
"1.56 µM"
>>> result_value("Cc1csc(NC(=NCCN2CCOCC2)Nc2nc(C)cs2)n1")
"> 100 µM"
>>> result_value("COc1ccc(CCN2CCc3c(C)c(C#N)c4nc5ccccc5n4c32)cc1OC")
"88.7 µM"
>>> result_value("S=C(NCc1ccccc1)N/N=C/c1ccccn1")
"47.8 µM"
>>> result_value("CCOC(=O)C(NC(=O)c1[nH]cnc1/N=N/N(C)C)C(C)C (stereo not drawn)")
"> 100 µM"

Lab note: next molecule to report on.
Exam item: Name the recorded TGI of the molecule listed here: NC(=O)Cc1nc2c(=O)[nH]cnc2n1C1OC(CO)C(O)C1O (stereo not drawn)
Marked response: > 100 µM
